- target-or-system: T1, human LAG3 expressed on cells (human, UniProt P18627 23-525)
- T1 construct: whole, on cells
- T1 sequence (looked up): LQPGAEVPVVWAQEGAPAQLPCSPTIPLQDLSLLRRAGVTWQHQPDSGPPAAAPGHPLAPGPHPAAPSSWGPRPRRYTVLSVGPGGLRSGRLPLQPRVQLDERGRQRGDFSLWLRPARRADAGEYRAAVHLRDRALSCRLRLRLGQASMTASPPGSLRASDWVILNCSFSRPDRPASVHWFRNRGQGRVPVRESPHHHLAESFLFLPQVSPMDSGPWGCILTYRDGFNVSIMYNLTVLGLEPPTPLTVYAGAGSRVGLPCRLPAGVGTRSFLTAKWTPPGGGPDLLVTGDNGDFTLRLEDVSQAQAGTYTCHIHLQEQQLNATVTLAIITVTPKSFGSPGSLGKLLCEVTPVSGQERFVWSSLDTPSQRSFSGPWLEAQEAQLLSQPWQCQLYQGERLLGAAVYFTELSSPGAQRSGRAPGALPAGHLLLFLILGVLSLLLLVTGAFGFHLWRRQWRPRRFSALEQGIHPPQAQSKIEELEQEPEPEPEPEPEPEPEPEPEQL
- assay-info: cell ELISA, 293T-hLAG3 cells
Here, each record is paired with measured OD450 at 0.0045725 ug/ml data.
Just the number, please.

Guide cases for OD450 at 0.0045725 ug/ml, answers given:
sdAb No. 27-H2 (VHH, Modified sdAb No. 27 (CDR2 DG to EG); not shown: Fc part implied by anti-human IgG1 Fc detection) VHH: QVQLVESGGGLVQPGGSLRLSCAASGFTLDYYAIGWFRQAPGKEREGVSCIRSSEGSTYYADSVKGRFTISSDNTKNTVYLQMNSLKPEDTAVYYCATDRYSDCRGPYENWGQGTQVTVSS    0.075
sdAb No. 17-H2 (VHH, Modified sdAb No. 17 (CDR1 DG to EG); not shown: Fc part implied by anti-human IgG1 Fc detection) VHH: QLQLVESGGGLVQPGGSLRLSCAASGLTLEGYAIGWFRQAPGKEREGLACISGSDGSTHYLDSVKGRFTISRDNGKNTMALQMNSLQFGDTAIYYCAARRGSCSGSWTYWGQGTQVTVSS    0.105
sdAb No. 27 (VHH, Fc of the tested form not described; also called sdAb 27; not shown: Fc part implied by anti-human Fc capture and anti-human IgG Fc detection) VHH: QVQLVESGGGLVQPGGSLRLSCAASGFTLDYYAIGWFRQAPGKEREGVSCIRSSDGSTYYADSVKGRFTISSDNTKNTVYLQMNSLKPEDTAVYYCATDRYSDCRGPYENWGQGTQVTVSS    0.097

Please turn your attention to the following entry.
Determine from records and report OD450 at 0.0045725 ug/ml for sdAb No. 17-H3 (VHH, Modified sdAb No. 17 (CDR2 DG to DA); not shown: Fc part implied by anti-human IgG1 Fc detection) VHH: QLQLVESGGGLVQPGGSLRLSCAASGLTLDGYAIGWFRQAPGKEREGLACISGSDASTHYLDSVKGRFTISRDNGKNTMALQMNSLQFGDTAIYYCAARRGSCSGSWTYWGQGTQVTVSS 0.096
